Target: P. capsici α, β-tubulin microtubule polymerization (Phytophthora capsici, UniProt A4ZYP2+A4ZYP4)
Sequence (A4ZYP4 1-453): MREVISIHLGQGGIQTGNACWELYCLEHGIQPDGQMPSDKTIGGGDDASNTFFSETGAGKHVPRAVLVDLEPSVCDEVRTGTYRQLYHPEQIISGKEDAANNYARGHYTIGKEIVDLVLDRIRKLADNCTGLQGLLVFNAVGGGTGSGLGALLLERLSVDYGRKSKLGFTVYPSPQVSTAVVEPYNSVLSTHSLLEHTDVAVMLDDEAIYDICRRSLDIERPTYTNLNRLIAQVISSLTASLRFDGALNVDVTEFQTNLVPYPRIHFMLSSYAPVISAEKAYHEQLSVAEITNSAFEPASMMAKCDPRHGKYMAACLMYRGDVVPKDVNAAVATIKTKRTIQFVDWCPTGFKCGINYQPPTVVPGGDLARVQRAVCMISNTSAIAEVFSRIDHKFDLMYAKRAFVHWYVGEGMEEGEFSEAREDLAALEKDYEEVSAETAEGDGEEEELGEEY
Sequence (A4ZYP2 1-446): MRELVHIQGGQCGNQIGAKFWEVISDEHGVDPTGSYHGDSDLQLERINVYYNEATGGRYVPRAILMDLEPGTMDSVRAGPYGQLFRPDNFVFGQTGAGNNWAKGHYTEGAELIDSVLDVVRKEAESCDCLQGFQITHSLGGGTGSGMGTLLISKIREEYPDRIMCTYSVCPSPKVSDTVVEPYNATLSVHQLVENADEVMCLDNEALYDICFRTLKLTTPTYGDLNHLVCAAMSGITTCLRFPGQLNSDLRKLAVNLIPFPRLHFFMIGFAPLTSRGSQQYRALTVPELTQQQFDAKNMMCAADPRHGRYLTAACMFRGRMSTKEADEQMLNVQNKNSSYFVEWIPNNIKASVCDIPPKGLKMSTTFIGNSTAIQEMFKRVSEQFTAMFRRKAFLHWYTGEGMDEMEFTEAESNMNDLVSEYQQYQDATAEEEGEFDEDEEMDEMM
Experiment: biochemical
Peptide text beside a SMILES is read from it. * marks the point of attachment. FITC = O=C1OC2(c3ccc(O)cc3Oc3cc(O)ccc32)c2ccc(NC(=S)*)cc21
OBSERVED_PROPERTY: IC50 (nM)
Answers are plain numbers, in nM.

# count of solved cases: 2
CC[C@H](C)[C@H](NC(C)=O)C(=O)N[C@H](C(=O)N[C@@H](CCSC)C(=O)N[C@@H](CO)C(=O)N[C@H](C(=O)N1CCC[C@H]1C(=O)N[C@@H](C)C(=O)N[C@@H](Cc1c[nH]cn1)C(=O)N[C@@H](CC(N)=O)C(=O)N[C@@H](C)C(=O)N[C@@H](CCCCN)C(=O)N[C@@H](CCC(=O)O)C(=O)N[C@@H](CCCCNC(=S)Nc1ccc2c(c1)C(=O)OC21c2ccc(O)cc2Oc2cc(O)ccc21)C(N)=O)C(C)C)[C@@H](C)O [α_P1] (Ac-ITMSVPAHNAKEK(FITC)-NH2): 2690
CC(=O)N[C@H](C(=O)N[C@@H](CC(N)=O)C(=O)N[C@H](C(=O)N[C@@H](CO)C(=O)N[C@@H](Cc1c[nH]c2ccccc12)C(=O)N[C@@H](CC(=O)O)C(=O)N1CCC[C@H]1C(=O)N[C@@H](CCC(N)=O)C(=O)N[C@@H](Cc1ccc(O)cc1)C(=O)N[C@@H](CC(N)=O)C(=O)N1CCC[C@H]1C(=O)N[C@@H](CC(=O)O)C(=O)N[C@@H](CCCCNC(=S)Nc1ccc2c(c1)C(=O)OC21c2ccc(O)cc2Oc2cc(O)ccc21)C(N)=O)[C@@H](C)O)[C@@H](C)O [α_P2] (Ac-TNTSWDPQYNPDK(FITC)-NH2): 802

Consider the record given below.
Value of IC50 reported for the compound CC(=O)N[C@@H](CC(N)=O)C(=O)N[C@@H](Cc1c[nH]cn1)C(=O)N[C@@H](Cc1ccccc1)C(=O)N[C@H](C(=O)N1CCC[C@H]1C(=O)N[C@H](C(=O)N[C@@H](CO)C(=O)N[C@@H](CC(N)=O)C(=O)N[C@@H](CCCNC(=N)N)C(=O)N[C@@H](Cc1ccccc1)C(=O)N[C@@H](CC(N)=O)C(=O)N[C@@H](C)C(=O)N[C@@H](CCCCNC(=S)Nc1ccc2c(c1)C(=O)OC21c2ccc(O)cc2Oc2cc(O)ccc21)C(N)=O)[C@@H](C)O)C(C)C [α_P3] (Ac-NHFVPTSNRFNAK(FITC)-NH2) is 1240

###

Biological target: P. capsici α, β-tubulin
Assay: ELISA binding affinity of phages displaying tubulin-binding peptides (anti-M13 antibody)
Parameters: species or system Phytophthora capsici
Conditions: phage displaying the peptide, 5 μg tubulin per well, OD 450 nm
OBSERVED_PROPERTY: Kd (nM)
One number for each entry, in nM.

# count of solved cases: 2
LMNPATMKTSSG [α_P7, M13 phage clone displaying 12-mer […], selected against P. capsici α-tubulin]: 0.36
SNMKPSMEYSSR [α_P9, M13 phage clone displaying 12-mer […], selected against P. capsici α-tubulin]: 0.273

Consider the record given below.
Form field, Kd with P. capsici α, β-tubulin, item KVYAINSWTNYY [α_P13, M13 phage clone displaying 12-mer […], selected against P. capsici α-tubulin] : 1.2

###

Please provide measured pKd for the entries that follow.
Target: P. capsici α, β-tubulin
Assay: ELISA binding affinity of phages displaying tubulin-binding peptides (anti-M13 antibody)
Parameters: species or system Phytophthora capsici
Conditions: phage displaying the peptide, 5 μg tubulin per well, OD 450 nm
Numbers only, as −log10 of the molar value.

# count of solved cases: 6
TNTSWDPQYNPD [α_P8, M13 phage clone displaying 12-mer […]; (so in the source), selected against P. capsici α-tubulin]: 10.32
MVHSKASMWPGK [α_P12, M13 phage clone displaying 12-mer […], selected against P. capsici α-tubulin]: 9.16
NFTINGKTHRLW [α_P4]: 9.53
SYNTFMYERASK [α_P11, M13 phage clone displaying 12-mer […], selected against P. capsici α-tubulin]: 9.25
IGNSWPLTSHSW [α_P10, M13 phage clone displaying 12-mer […], selected against P. capsici α-tubulin]: 9.84
NPIGDNYSGTGL [β_P2]: 10.43

State the recorded pKd for every item in the following list.
1. SSHNHDSYHGTK [α_P6, M13 phage clone displaying 12-mer […], selected against P. capsici α-tubulin]
2. NAITLLSPPLHK [α_P5]

A)
1: 9.32; 2: 10.24

Where do these numbers come from? They come from paper PMC6600545.
